TESTED SYSTEM: Aβ1-42 fibrils (Homo sapiens)
Construct: Aβ1-42 peptide 5 mg, Cat #20276-5 (Anaspec, Fremont, California); purchased Anaspec 20276-5
Sequence (P05067 672-713 limits assumed): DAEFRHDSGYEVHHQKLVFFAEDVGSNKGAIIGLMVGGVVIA
METHOD DESCRIPTION: Competition binding against 5 nM [3H]BF-227 on Aβ1-42 fibrils
CONDITIONS USED: 5 nM [3H]BF-227, Cheng-Prusoff; geometric mean (low; high errors of the geometric mean); read-out: Aβ Ki
The reader will find reported Ki values listed item by item below.
METRIC NAME: Ki (µM)

compound="Cc1ccc2c(sc(-c3ccc4c(c3)sc(-c3ccc(N(C)C)cc3)[n+]4C)[n+]2C)c1S(=O)(=O)O [reference compound]" unit_string=µM inequality_operator== number=2.15
compound="CN(C)c1ncc(/C=C/c2nc3ccc(OCCOCCOCCOCCOCCF)cc3o2)s1 [Compound 10]" unit_string=µM inequality_operator== number=0.018
compound="Fc1ccc2nc(/C=C/c3ccccc3)oc2c1 [Compound 13]" unit_string=µM inequality_operator== number=1.25
compound="CN(C)c1ncc(/C=C/c2nc3ccc(I)cc3o2)s1 [Compound 11]" unit_string=µM inequality_operator== number=0.223
compound="CN(C)c1ncc(/C=C/c2nc3ccc(OCCCCCF)cc3o2)s1 [Compound 4]" unit_string=µM inequality_operator== number=0.028
compound="CN(C)c1ncc(/C=C/c2nc3ccc(OCCCCCCF)cc3o2)s1 [Compound 5]" unit_string=µM inequality_operator== number=0.023
compound="CN(C)c1ncc(/C=C/c2nc3ccc(OCCOCCOCCOCCF)cc3o2)s1 [Compound 9]" unit_string=µM inequality_operator== number=0.026
compound="CN(C)c1ncc(/C=C/c2nc3cc(I)ccc3o2)s1 [Compound 12]" unit_string=µM inequality_operator== number=0.096
compound="CN(C)c1ncc(C=Cc2nc3ccc(OCCF)cc3o2)s1 [Compound 1]" unit_string=µM inequality_operator== number=0.012
compound="CN(C)c1ncc(/C=C/c2nc3ccc(OCCOCCF)cc3o2)s1 [Compound 7]" unit_string=µM inequality_operator== number=0.011
compound="C#CCN(C)CCCOc1ccc(Cl)cc1Cl [Clorgyline, reference compound]" unit_string=µM inequality_operator=> number=5
compound="CNc1ccc(/C=C/c2ccc(OCCOCCOCCF)nc2)cc1 [Florbetapir (AV-45), reference compound]" unit_string=µM inequality_operator== number=0.012
compound="COc1cc(/C=C/c2ccc(N)cc2)ccc1/C=C/c1ccc(N)cc1 [BMB, 1,4-bis(paminostyryl)-2-methoxy benzene, reference compound]" unit_string=µM inequality_operator== number=0.076
compound="CNc1ccc(-c2nc3ccc(O)cc3s2)cc1F [Flutemetamol, reference compound]" unit_string=µM inequality_operator== number=0.065
compound="CN(C)c1ncc(/C=C/c2nc3ccc(OCCCF)cc3o2)s1 [Compound 2]" unit_string=µM inequality_operator== number=0.00901
compound="CN(C)c1ncc(/C=C/c2nc3ccc(OCCCCF)cc3o2)s1 [Compound 3]" unit_string=µM inequality_operator== number=0.031
compound="CNc1ccc(-c2cc3cc(O)ccc3o2)c(F)n1 [Flutafuranol (NAV 4694), reference compound]" unit_string=µM inequality_operator== number=0.042
compound="CN(C)c1ncc(/C=C/c2nc3ccc(OCCOCCOCCF)cc3o2)s1 [Compound 8]" unit_string=µM inequality_operator== number=0.013
compound="Fc1ccc2nc(/C=C/c3cncs3)oc2c1 [Compound 15]" unit_string=µM inequality_operator== number=1.45
compound="NCCNC(=O)c1ccc(Cl)cc1 [RO-16-6491, reference compound]" unit_string=µM inequality_operator=> number=7
compound="CN(C)c1ncc(/C=C/c2nc3ccc(OCCCCCCCF)cc3o2)s1 [Compound 6]" unit_string=µM inequality_operator== number=0.027
compound="Fc1ccc2oc(/C=C/c3ccccc3)nc2c1 [Compound 14]" unit_string=µM inequality_operator== number=0.528

====

TESTED SYSTEM: human α-Syn fibrils (Homo sapiens, UniProt P37840)
Construct: Human full-length α-Syn (NM_000345) was cloned; made in house; host or cells: Escherichia coli BL21 (D3)
METHOD DESCRIPTION: Competition binding against 5 nM [3H]BF-227 on α-Syn fibrils
CONDITIONS USED: selectivity for α-Syn binding, ratio of Ki on Aβ fibrils to Ki on α-Syn fibrils
Procedure: Human full-length α-Syn (NM_000345) was cloned into the ampicillin-resistant Escherichia coli expression vector PET7-7 and transformed into BL21 (D3) strains for expression. […] After each centrifugation step, the supernatant was removed and the concentration of α-Syn in the supernatant was calculated from absorbance at 280 nm. […] Results are expressed as inhibition constants (Ki, nM) corrected for ligand occupancy.[7] […]
Listed below: Ki(Aβ)/Ki(α-Syn) values for each entry.
METRIC NAME: Ki(Aβ)/Ki(α-Syn)

compound=Fc1ccc2nc(/C=C/c3ccccc3)oc2c1 metric_name=Ki(Aβ)/Ki(α-Syn) inequality_operator== number=3.8
compound=CN(C)c1ncc(/C=C/c2nc3ccc(OCCCF)cc3o2)s1 metric_name=Ki(Aβ)/Ki(α-Syn) inequality_operator== number=0.06
compound=CN(C)c1ncc(/C=C/c2nc3cc(I)ccc3o2)s1 metric_name=Ki(Aβ)/Ki(α-Syn) inequality_operator== number=0.35
compound="CNc1ccc(-c2cc3cc(O)ccc3o2)c(F)n1 [Flutafuranol (NAV 4694), reference compound]" metric_name=Ki(Aβ)/Ki(α-Syn) inequality_operator== number=1.34
compound=CN(C)c1ncc(/C=C/c2nc3ccc(I)cc3o2)s1 metric_name=Ki(Aβ)/Ki(α-Syn) inequality_operator== number=0.30
compound=CN(C)c1ncc(/C=C/c2nc3ccc(OCCOCCOCCF)cc3o2)s1 metric_name=Ki(Aβ)/Ki(α-Syn) inequality_operator== number=0.25
compound=CN(C)c1ncc(/C=C/c2nc3ccc(OCCOCCOCCOCCOCCF)cc3o2)s1 metric_name=Ki(Aβ)/Ki(α-Syn) inequality_operator== number=0.24
compound=CN(C)c1ncc(/C=C/c2nc3ccc(OCCCCF)cc3o2)s1 metric_name=Ki(Aβ)/Ki(α-Syn) inequality_operator== number=0.08
compound=CN(C)c1ncc(/C=C/c2nc3ccc(OCCCCCCCF)cc3o2)s1 metric_name=Ki(Aβ)/Ki(α-Syn) inequality_operator== number=0.13
compound=CN(C)c1ncc(/C=C/c2nc3ccc(OCCOCCOCCOCCF)cc3o2)s1 metric_name=Ki(Aβ)/Ki(α-Syn) inequality_operator== number=0.26
compound="Cc1ccc2c(sc(-c3ccc4c(c3)sc(-c3ccc(N(C)C)cc3)[n+]4C)[n+]2C)c1S(=O)(=O)O [reference compound]" metric_name=Ki(Aβ)/Ki(α-Syn) inequality_operator=≤ number=0.2
compound=CN(C)c1ncc(/C=C/c2nc3ccc(OCCCCCF)cc3o2)s1 metric_name=Ki(Aβ)/Ki(α-Syn) inequality_operator== number=0.09
compound=Fc1ccc2oc(/C=C/c3ccccc3)nc2c1 metric_name=Ki(Aβ)/Ki(α-Syn) inequality_operator== number=2.2
compound=Fc1ccc2nc(/C=C/c3cncs3)oc2c1 metric_name=Ki(Aβ)/Ki(α-Syn) inequality_operator== number=5.1
compound=CN(C)c1ncc(/C=C/c2nc3ccc(OCCCCCCF)cc3o2)s1 metric_name=Ki(Aβ)/Ki(α-Syn) inequality_operator== number=0.05
compound="CNc1ccc(-c2nc3ccc(O)cc3s2)cc1F [Flutemetamol, reference compound]" metric_name=Ki(Aβ)/Ki(α-Syn) inequality_operator== number=1.35
compound=CN(C)c1ncc(C=Cc2nc3ccc(OCCF)cc3o2)s1 metric_name=Ki(Aβ)/Ki(α-Syn) inequality_operator== number=0.23
compound="CNc1ccc(/C=C/c2ccc(OCCOCCOCCF)nc2)cc1 [Florbetapir (AV-45), reference compound]" metric_name=Ki(Aβ)/Ki(α-Syn) inequality_operator== number=0.46
compound=CN(C)c1ncc(/C=C/c2nc3ccc(OCCOCCF)cc3o2)s1 metric_name=Ki(Aβ)/Ki(α-Syn) inequality_operator== number=0.13

====

Each entry below carries its recorded pKi.
TESTED SYSTEM: human α-Syn fibrils (Homo sapiens, UniProt P37840)
Construct: Human full-length α-Syn (NM_000345) was cloned; made in house; host or cells: Escherichia coli BL21 (D3)
METHOD DESCRIPTION: Competition binding against 5 nM [3H]BF-227 on α-Syn fibrils
CONDITIONS USED: 5 nM [3H]BF-227, Cheng-Prusoff; geometric mean (low; high errors of the geometric mean)
pKi: −log10 of the molar value.
METRIC NAME: pKi

compound="COc1cc(/C=C/c2ccc(N)cc2)ccc1/C=C/c1ccc(N)cc1 [BMB, 1,4-bis(paminostyryl)-2-methoxy benzene, reference compound]" number=6.74
compound="CNc1ccc(-c2nc3ccccc3s2)cc1 [BTA-1, reference compound]" number=7.19
compound=CN(C)c1ncc(/C=C/c2nc3ccc(OCCCCCCF)cc3o2)s1 number=6.34
compound=CN(C)c1ncc(/C=C/c2nc3ccc(OCCOCCOCCF)cc3o2)s1 number=7.28

Source of measurements: paper PMC6144582
